Reference source for all entries: ChEMBL document CHEMBL3297723

- Assay Comment: Selectivity index, ratio of CC50 for human P21 cells to IC50 for HPV-16 LCR transcriptional activity in human P21 cells
- Assay type: functional
Below, each entry is listed with its recorded Ratio CC50/IC50.

Solved cases (4 shown):
Lookup: Bench note: what Ratio CC50/IC50 did CCOC(=O)c1cn(Cc2ccc3[nH]ccc3c2)c2nc(N3CCN(c4nc5ccccc5s4)CC3)ccc2c1=O show?
Found: >769

Lookup: So what's the measured Ratio CC50/IC50 for this one? CCOC(=O)c1cn(Cc2cccc(Cl)c2)c2nc(N3CCN(c4nc5ccccc5s4)CC3)ccc2c1=O
Found: >38.1

Lookup: Returns the measured Ratio CC50/IC50 for the input compound. Input: CCOC(=O)c1cn(Cc2cccc(Cl)c2F)c2nc(N3CCN(c4nc5ccccc5s4)CC3)ccc2c1=O
Found: >385

Lookup: Ratio CC50/IC50 lookup needed for CCOC(=O)c1cn(Cc2cccc(Cl)c2F)c2nc(N3CCN(c4ccccn4)CC3)ccc2c1=O , thanks.
Found: >89.2

Others:
Lookup: Report Ratio CC50/IC50 for CCOC(=O)c1cn(Cc2ccccn2)c2nc(N3CCN(c4nc5ccccc5s4)CC3)ccc2c1=O please.
Found: 6.5

Lookup: Given the compound CCOC(=O)c1cn(Cc2cccc(Cl)c2F)c2nc(N3CCN(c4nccs4)CC3)ccc2c1=O , what is its reported Ratio CC50/IC50?
Found: 20.9

Lookup: Value lookup for Ratio CC50/IC50; key = CCOC(=O)c1cn(Cc2ccccc2F)c2nc(N3CCN(c4nc5ccccc5s4)CC3)ccc2c1=O
Found: >23.9

---

- Assay Comment: Drug uptake in human CaSki cells at 10 uM after 1 hr by reverse-phase HPLC analysis
- Assay type: ADME, cell-based
- Experimental Setup: ca-ski
Measured Drug uptake of individual entries
Respond with the bare value in %.

As a guide, the following entries are already answered.
Lookup: I am curious: what Drug uptake value has been reported for O=C(O)c1cn(Cc2cccc(Cl)c2F)c2nc(N3CCN(c4ccc5ccccc5n4)CC3)ccc2c1=O ?
Found: 20

Lookup: What does the data say about its Drug uptake? Entry: O=C(O)c1cn(Cc2cccc(Cl)c2F)c2nc(N3CCN(c4nc5ccccc5s4)CC3)ccc2c1=O
Found: 20

Now for another entry.
Lookup: Give its Drug uptake value. Item: O=C(O)c1cn(Cc2cccc(Cl)c2F)c2nc(N3CCN(c4nccs4)CC3)ccc2c1=O
Found: 20

---

Reported Ratio CC50/IC50 values are given for each entry in this list.
- Assay Comment: Selectivity index, ratio of CC50 for human P21 cells to IC50 for HPV-16 LCR transcriptional activity in human P21 cells
- Assay type: functional
Just the number, please, no unit attached.

# annotated cases, reported Ratio CC50/IC50 shown
Lookup: Field request: Ratio CC50/IC50 | item: CCOC(=O)c1cn(Cc2cccc(Cl)c2F)c2nc(N3CCN(c4ccc5ccccc5n4)CC3)ccc2c1=O
Found: 282

Lookup: Would you mind telling me what Ratio CC50/IC50 value was observed for CCOC(=O)c1cn(Cc2ccc(C(F)(F)F)cc2)c2nc(N3CCN(c4nc5ccccc5s4)CC3)ccc2c1=O ?
Found: 7.16

Lookup: Item O=C(O)c1cn(Cc2ccccc2)c2nc(N3CCN(c4nc5ccccc5s4)CC3)ccc2c1=O has what recorded Ratio CC50/IC50?
Found: 15.2

Lookup: Value lookup for Ratio CC50/IC50; key = CCOC(=O)c1cn(CCc2ccccn2)c2nc(N3CCN(c4nc5ccccc5s4)CC3)ccc2c1=O
Found: 16.2

New cases:
Lookup: Fill blank: measured Ratio CC50/IC50 of the compound O=C(O)c1cn(Cc2cccc(Cl)c2F)c2nc(N3CCN(c4ccc5ccccc5n4)CC3)ccc2c1=O is ____.
Found: 6.1

Lookup: What does the record list as Ratio CC50/IC50 for CCOC(=O)c1cn(Cc2ccccc2)c2nc(N3CCN(c4nc5ccccc5s4)CC3)ccc2c1=O ?
Found: 268

---

- Assay Comment: Cytotoxicity against human P21 cells assessed as inhibition of cell viability after 24 hrs by CellTiter96 assay
- Assay type: cell-based
Measured Property: CC50 at 24 h

Recorded CC50 at 24 h, per entry:
Lookup: Form field: reported CC50 at 24 h of CCOC(=O)c1cn(Cc2cccc(Cl)c2F)c2nc(N3CCN(c4ccc5ccccc5n4)CC3)ccc2c1=O
Found: 59.3 µM

Lookup: Bench note: what CC50 at 24 h did CCOC(=O)c1cn(Cc2cccc(Cl)c2)c2nc(N3CCN(c4nc5ccccc5s4)CC3)ccc2c1=O show?
Found: > 100 µM

Lookup: Which CC50 at 24 h reading was recorded for the molecule CCOC(=O)c1cn(Cc2ccc(Cl)cc2)c2nc(N3CCN(c4nc5ccccc5s4)CC3)ccc2c1=O ?
Found: > 100 µM

Lookup: What does the record list as CC50 at 24 h for CCOC(=O)c1cn(Cc2ccccc2)c2nc(N3CCN(c4nc5ccccc5s4)CC3)ccc2c1=O ?
Found: 61.7 µM

Lookup: Please give the measured CC50 at 24 h for this molecule: CCOC(=O)c1cn(Cc2ccccn2)c2nc(N3CCN(c4nc5ccccc5s4)CC3)ccc2c1=O
Found: 34.6 µM

***
Lookup: // CC50 at 24 h lookup, key: O=C(O)c1cn(Cc2cccc(Cl)c2F)c2nc(N3CCN(c4ccc5ccccc5n4)CC3)ccc2c1=O
Found: 17.6 µM

Lookup: Quick check: CC50 at 24 h of CCOC(=O)c1cn(Cc2cccc(Cl)c2F)c2nc(N3CCN(c4nccs4)CC3)ccc2c1=O ?
Found: 25.3 µM

Lookup: Endpoint output: CC50 at 24 h of CCOC(=O)c1cn(Cc2cccc(Cl)c2F)c2nc(N3CCN(c4ccccn4)CC3)ccc2c1=O . Value?
Found: > 100 µM

Lookup: Look at this molecule and give its reported CC50 at 24 h. O=C(O)c1cn(Cc2ccccc2)c2nc(N3CCN(c4nc5ccccc5s4)CC3)ccc2c1=O
Found: 69.6 µM

Lookup: Requested field: CC50 at 24 h. Item: CCOC(=O)c1cn(Cc2cccc(Cl)c2F)c2nc(N3CCN(c4nc5ccccc5o4)CC3)ccc2c1=O
Found: > 100 µM

Lookup: Give its CC50 at 24 h value. Item: CCOC(=O)c1cn(Cc2ccc(C(F)(F)F)cc2)c2nc(N3CCN(c4nc5ccccc5s4)CC3)ccc2c1=O
Found: 78.2 µM

Lookup: Form field: reported CC50 at 24 h of CCOC(=O)c1cn(Cc2ccc3[nH]ccc3c2)c2nc(N3CCN(c4nc5ccccc5s4)CC3)ccc2c1=O
Found: > 100 µM

Lookup: What CC50 at 24 h value was documented for this molecule, CCOC(=O)c1cn(CCc2ccccn2)c2nc(N3CCN(c4nc5ccccc5s4)CC3)ccc2c1=O ?
Found: 17.1 µM

Lookup: Given the entry CCOC(=O)c1cn(Cc2ccccc2F)c2nc(N3CCN(c4nc5ccccc5s4)CC3)ccc2c1=O , report its measured CC50 at 24 h.
Found: > 100 µM

Lookup: Which CC50 at 24 h reading was recorded for the molecule CCOC(=O)c1cn(Cc2cccc(Cl)c2F)c2nc(N3CCN(c4nc5ccccc5s4)CC3)ccc2c1=O ?
Found: > 100 µM

---

- Assay Comment: Drug uptake in human CaSki cells at 10 uM after 16 hrs by reverse-phase HPLC analysis
- Assay type: ADME, cell-based
- Experimental Setup: ca-ski
Criterion: Drug uptake strictly under 40%. Met: 1 (yes). Not met: 0 (no).

Known results for molecules:
Lookup: Determine whether this molecule shows Drug uptake lower than 40% (ties excluded): O=C(O)c1cn(Cc2cccc(Cl)c2F)c2nc(N3CCN(c4ccc5ccccc5n4)CC3)ccc2c1=O
Found: 1 (yes)

Lookup: Does the reported Drug uptake of the following molecule sit strictly below 40%? CCOC(=O)c1cn(Cc2cccc(Cl)c2F)c2nc(N3CCN(c4nc5ccccc5s4)CC3)ccc2c1=O
Found: 1 (yes)

Lookup: Drug uptake under 40%? Item: O=C(O)c1cn(Cc2cccc(Cl)c2F)c2nc(N3CCN(c4nccs4)CC3)ccc2c1=O
Found: 0 (no)

Lookup: Field: below-cutoff. Rule: recorded Drug uptake strictly less than 40%. Subject: O=C(O)c1cn(Cc2cccc(Cl)c2F)c2nc(N3CCN(c4nc5ccccc5s4)CC3)ccc2c1=O
Found: 1 (yes)

Consider the record given below.
Lookup: Quick check: does CCOC(=O)c1cn(Cc2cccc(Cl)c2F)c2nc(N3CCN(c4nccs4)CC3)ccc2c1=O have Drug uptake under 40%?
Found: 0 (no)

---

- Assay Comment: Drug uptake in human CaSki cells at 10 uM after 1 hr by reverse-phase HPLC analysis
- Assay type: ADME, cell-based
- Experimental Setup: ca-ski
Measured Property: Drug uptake

Lookup: Which value of Drug uptake has been reported for CCOC(=O)c1cn(Cc2cccc(Cl)c2F)c2nc(N3CCN(c4nccs4)CC3)ccc2c1=O in the records?
Found: Not Active

Lookup: Reported Drug uptake, molecule CCOC(=O)c1cn(Cc2cccc(Cl)c2F)c2nc(N3CCN(c4ccc5ccccc5n4)CC3)ccc2c1=O : ____
Found: Not Active

Lookup: What measured Drug uptake goes with CCOC(=O)c1cn(Cc2cccc(Cl)c2F)c2nc(N3CCN(c4nc5ccccc5s4)CC3)ccc2c1=O ?
Found: Not Active
